# TESTED_TARGET: T1, hPDL1(19-239)-TVMV-His (human, UniProt Q9NZQ7 19-239)
# T1 construct: The construct name says 19-239, the running text says amino acids 18-239; Expressed in HEK293T cells; also called PD-L1-His; PD-L1-TVMV-His
# T1 sequence (Q9NZQ7 other isoform, or with tags, fused parts or gaps limits assumed): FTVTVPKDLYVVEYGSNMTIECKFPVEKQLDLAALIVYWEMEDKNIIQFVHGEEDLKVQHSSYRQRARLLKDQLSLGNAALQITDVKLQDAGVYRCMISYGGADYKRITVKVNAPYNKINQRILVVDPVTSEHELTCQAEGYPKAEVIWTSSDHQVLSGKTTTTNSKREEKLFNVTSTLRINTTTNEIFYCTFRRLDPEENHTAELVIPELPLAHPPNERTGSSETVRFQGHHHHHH
# EXPERIMENT: HTRF competition, PD-1-Ig (20 nM) binding to human PD-L1-His (10 nM)
Positions of bridges follow the written chain, without caps; N, C: chain ends. Non-standard residues stand in square brackets, D forms with d. Bta = N[C@@H](Cc1csc2ccccc12)C(=O)O; NMeNle = CCCC[C@H](NC)C(=O)O; NMeA = CN[C@@H](C)C(=O)O; Sar = CNCC(=O)O

BINDER: {CH2CO}-F[NMeA]NPHL[Sar]WS[Bta][NMeNle][NMeNle]RCG-NH2 (thioether N-14; SMILES CCCC[C@H]1C(=O)N(C)[C@@H](CCCC)C(=O)N[C@@H](CCCNC(=N)N)C(=O)N[C@H](C(=O)NCC(N)=O)CSCC(=O)N[C@@H](Cc2ccccc2)C(=O)N(C)[C@@H](C)C(=O)N[C@@H](CC(N)=O)C(=O)N2CCC[C@H]2C(=O)N[C@@H](Cc2c[nH]cn2)C(=O)N[C@@H](CC(C)C)C(=O)N(C)CC(=O)N[C@@H](Cc2c[nH]c3ccccc23)C(=O)N[C@@H](CO)C(=O)N[C@@H](Cc2csc3ccccc23)C(=O)N1C, macrocyclic peptide cyclized via the ClAc moiety with the downstream cysteine) [Compound No. 64]
IC50 (nM): 7
